Quick list: IC50 per entry.
Target: haematopoietic prostaglandin D synthase (H-PGDS) (Homo sapiens, UniProt O60760)
Construct: Full length human H-PGDS cDNA (Invitrogen Ultimate ORF IOH13026) was amplified by PCR; made in house; host or cells: E. coli BL21 (DE3*), vector pET22b+
Sequence (O60760 whole entry): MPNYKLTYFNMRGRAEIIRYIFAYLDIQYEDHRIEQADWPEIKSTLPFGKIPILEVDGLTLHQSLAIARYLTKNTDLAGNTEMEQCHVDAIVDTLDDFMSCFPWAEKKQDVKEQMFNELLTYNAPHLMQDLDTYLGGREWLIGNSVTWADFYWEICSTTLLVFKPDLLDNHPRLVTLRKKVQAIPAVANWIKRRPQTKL
Assay: H-PGDS RapidFire High Throughput Mass Spectrometry Assay
Format: biochemical
Details: H-PGDS RapidFire MS assay, mean pIC50; read-out: Potency Range (mean pIC50) (converted)

- compound: "Cn1nnnc1N1CCC(NC(=O)c2cnc3cc(C4CC4)ccc3c2)CC1"
  IC50: "< 10 nM"
- compound: "CNc1cc2ncc(C(=O)N[C@H]3CC[C@H](C(C)(C)O)CC3)cc2cc1Cl"
  IC50: "< 10 nM"
- compound: "CC(O)CO[C@H]1CC[C@H](NC(=O)c2cnc3cc(OC(F)F)ccc3c2)CC1 (some centres unmarked)"
  IC50: "10 to 79.4 nM"
- compound: "O=C(N[C@H]1CC[C@@H](N2CC(O)(C(F)(F)F)C2)CC1)c1cnc2cc(OC(F)F)c(F)cc2c1"
  IC50: "100 to 1000 nM"
- compound: "NC(=O)CO[C@H]1CC[C@H](NC(=O)c2cnc3cc(OC(F)F)c(Cl)cc3c2)CC1"
  IC50: "< 10 nM"
- compound: "COc1ccc2cc(C(=O)N[C@H]3CC[C@H](C(C)(C)O)CC3)cnc2c1F"
  IC50: "10 to 79.4 nM"
- compound: "O=C(N[C@H]1CC[C@H](N[C@@H](CO)C(F)(F)F)CC1)c1cnc2cc(OC(F)F)c(Cl)cc2c1"
  IC50: "< 10 nM"
- compound: "O=C(NC1CCOCC1)c1cnc2cc(OC(F)F)c(Cl)cc2c1"
  IC50: "10 to 79.4 nM"

---

Target: haematopoietic prostaglandin D synthase (H-PGDS) (Homo sapiens, UniProt O60760)
Construct: Full length human H-PGDS cDNA (Invitrogen Ultimate ORF IOH13026) was amplified by PCR; made in house; host or cells: E. coli BL21 (DE3*), vector pET22b+
Assay: H-PGDS RapidFire High Throughput Mass Spectrometry Assay
Assay type: biochemical
Conditions: H-PGDS RapidFire MS assay, mean pIC50; read-out: Potency Range (mean pIC50) (converted)
Description: The H-PGDS RapidFire™ mass spectrometric assay monitors conversion of prostaglandin H2 (PGH2) to prostaglandin D2 (PGD2) by haematopoietic prostaglandin D synthase (H-PGDS). […] Plates are then read on the RapidFire™ high throughput solid phase extraction system (Agilent) which incorporates a solid phase extraction step coupled to a triple quadrupole mass spectrometer (AB SCIEX). […]
Where a name gives a salt, the structure may show the parent alone.
measurementName: IC50

- compound: "O=C(N[C@H]1CCNC1=O)c1cnc2cc(C3CC3)c(F)cc2c1 [Example 41, hydrochloride]"
  measurementName: "IC50"
  reportedMeasurement: "10 to 79.4 nM"
- compound: "C[C@H](N[C@H]1CC[C@H](NC(=O)c2cnc3cc(OC(F)F)c(Cl)cc3c2)CC1)C(F)F"
  measurementName: "IC50"
  reportedMeasurement: "< 10 nM"
- compound: "CC1(F)CN(c2cc3ncc(C(=O)N[C@H]4CC[C@H](C(C)(C)O)CC4)cc3cc2F)C1"
  measurementName: "IC50"
  reportedMeasurement: "10 to 79.4 nM"
- compound: "CC(C)(O)[C@H]1CC[C@H](NC(=O)c2cnc3cc(OC(F)(F)F)c(Cl)cc3c2)CC1 [Example 215B]"
  measurementName: "IC50"
  reportedMeasurement: "< 10 nM"
- compound: "CC(C)CN1CC[C@H](NC(=O)c2cnc3cc(OC(F)F)c(F)cc3c2)C1=O"
  measurementName: "IC50"
  reportedMeasurement: "10 to 79.4 nM"
- compound: "CC(O)[C@H]1CC[C@H](NC(=O)c2cnc3cc(OC(F)F)ccc3c2)CC1 (some centres unmarked)"
  measurementName: "IC50"
  reportedMeasurement: "10 to 79.4 nM"
- compound: "O=C(N[C@H]1CC[C@H](N[C@@H](CO)C(F)(F)F)CC1)c1cnc2cc(OC(F)F)c(F)cc2c1"
  measurementName: "IC50"
  reportedMeasurement: "10 to 79.4 nM"
- compound: "CC(C)(O)[C@H]1CC[C@H](NC(=O)c2cnc3cc(N=[N+]=[N-])c(Cl)cc3c2)CC1"
  measurementName: "IC50"
  reportedMeasurement: "10 to 79.4 nM"
- compound: "CC(C)(O)[C@H]1CC[C@H](NC(=O)c2cnc3cc(C4CCC4)c(Cl)cc3c2)CC1"
  measurementName: "IC50"
  reportedMeasurement: "< 10 nM"
- compound: "O=C(N[C@H]1CCCNC1=O)c1cnc2cc(C3CC3)c(Cl)cc2c1 [Example 36, hydrochloride]"
  measurementName: "IC50"
  reportedMeasurement: "10 to 79.4 nM"
- compound: "CC(C)(O)[C@H]1CC[C@H](NC(=O)c2cnc3cc(N4CC(F)(F)C4)c(F)cc3c2)CC1"
  measurementName: "IC50"
  reportedMeasurement: "10 to 79.4 nM"
- compound: "N#Cc1cnc(N2CCC(NC(=O)c3cnc4cc(OC(F)F)c(F)cc4c3)CC2)o1"
  measurementName: "IC50"
  reportedMeasurement: "10 to 79.4 nM"
- compound: "CC(C)(O)[C@H]1C[C@H](NC(=O)c2cnc3cc(OC(F)F)c(Cl)cc3c2)C1"
  measurementName: "IC50"
  reportedMeasurement: "< 10 nM"
- compound: "CC(C)N1CC[C@H](NC(=O)c2cnc3cc(OC(F)F)c(Cl)cc3c2)C1=O"
  measurementName: "IC50"
  reportedMeasurement: "10 to 79.4 nM"
- compound: "C[C@H](N[C@H]1C[C@H](NC(=O)c2cnc3cc(OC(F)F)c(F)cc3c2)C1)C(F)F"
  measurementName: "IC50"
  reportedMeasurement: "10 to 79.4 nM"
- compound: "Cc1cc2cc(C(=O)N[C@H]3CC[C@H](C(C)(C)O)CC3)cnc2c(Cl)c1OC(F)F"
  measurementName: "IC50"
  reportedMeasurement: "10 to 79.4 nM"
- compound: "CC(C)(O)[C@H]1CC[C@H](NC(=O)c2cnc3c(Cl)c(OC(F)F)ccc3c2)CC1"
  measurementName: "IC50"
  reportedMeasurement: "10 to 79.4 nM"
- compound: "CC(C)(O)[C@H]1CC[C@H](NC(=O)c2cnc3cc(N)c(F)cc3c2)CC1"
  measurementName: "IC50"
  reportedMeasurement: "100 to 1000 nM"
- compound: "CC(C)(O)[C@@H]1CC[C@@H](NC(=O)c2cnc3cc(OC(F)F)ccc3c2)CO1 (racemic)"
  measurementName: "IC50"
  reportedMeasurement: "10 to 79.4 nM"
- compound: "CCc1ccc2cc(C(=O)NC3CCN(c4nnnn4C)CC3)cnc2c1"
  measurementName: "IC50"
  reportedMeasurement: "10 to 79.4 nM"
- compound: "CC(C)(O)C(=O)N1CC(NC(=O)c2cnc3cc(OC(F)F)c(Cl)cc3c2)C1"
  measurementName: "IC50"
  reportedMeasurement: "100 to 1000 nM"
- compound: "COc1cc(F)c2cc(C(=O)NC3CCN(c4nnnn4C)CC3)cnc2c1"
  measurementName: "IC50"
  reportedMeasurement: "10 to 79.4 nM"
- compound: "O=C(NC1CCN(CC(F)(F)F)CC1)c1cnc2cc(OC(F)F)c(F)cc2c1"
  measurementName: "IC50"
  reportedMeasurement: "10 to 79.4 nM"
- compound: "N#Cc1ccc(N2CC(NC(=O)c3cnc4cc(OC(F)F)c(F)cc4c3)C2)nc1"
  measurementName: "IC50"
  reportedMeasurement: "10 to 79.4 nM"
- compound: "O=C(N[C@H]1CC[C@H](C(=O)N2CCOCC2)CC1)c1cnc2cc(OC(F)F)c(Cl)cc2c1"
  measurementName: "IC50"
  reportedMeasurement: "< 10 nM"
- compound: "C[C@H]1CCN1c1cc2ncc(C(=O)N[C@H]3CC[C@H](C(C)(C)O)CC3)cc2cc1F"
  measurementName: "IC50"
  reportedMeasurement: "10 to 79.4 nM"
- compound: "O=C(NC1CCN(c2cccnc2)CC1)c1cnc2cc(OC(F)F)c(F)cc2c1"
  measurementName: "IC50"
  reportedMeasurement: "10 to 79.4 nM"
- compound: "C[C@@H]1CCN1c1cc2ncc(C(=O)N[C@H]3CC[C@H](C(C)(C)O)CC3)cc2cc1F"
  measurementName: "IC50"
  reportedMeasurement: "100 to 1000 nM"
- compound: "N#C[C@H]1CC[C@H](NC(=O)c2cnc3cc(OC(F)F)c(F)cc3c2)CC1"
  measurementName: "IC50"
  reportedMeasurement: "10 to 79.4 nM"
- compound: "C[C@@H]1CNC(=O)[C@H]1NC(=O)c1cnc2cc(OC(F)F)c(Cl)cc2c1"
  measurementName: "IC50"
  reportedMeasurement: "< 10 nM"
- compound: "CC(C)(N[C@H]1CC[C@H](NC(=O)c2cnc3cc(OC(F)F)c(F)cc3c2)CC1)C(F)(F)F"
  measurementName: "IC50"
  reportedMeasurement: "< 10 nM"
- compound: "CS(=O)(=O)N1CCC(NC(=O)c2cnc3cc(OC(F)F)ccc3c2)CC1"
  measurementName: "IC50"
  reportedMeasurement: "10 to 79.4 nM"
